Assay: physchem
Conditions: 1-octanol/PBS, pH 7.4
ENDPOINT_NAME: logD at 1 h

Here is how some molecules turned out for logD at 1 h.
CNC(=O)c1ncn2cc(-c3c(F)ccc(NS(=O)(=O)c4cc(F)cnc4OC)c3F)ccc12; 2.3
CNC(=O)c1ncn2cc(-c3c(F)ccc(NS(=O)(=O)c4cc(C#N)cnc4OC)c3F)ccc12; 1.6

(1) CNC(=O)c1ncn2cc(-c3c(F)ccc(NS(=O)(=O)c4cc(F)cnc4C)c3F)ccc12
(2) CNC(=O)c1ncn2c(F)c(-c3c(F)ccc(NS(=O)(=O)c4cc(Cl)cnc4OC)c3F)ccc12
Query :: Sorting by logD at 1 h in descending order, would 1 or 2 appear first? Give the label of your selection.
Result :: 2

###

Experiment: Unbound fraction in BALB/c mouse plasma at 3 mg/kg, po and 1 mg/kg, iv measured upto 24 hrs
Assay type: ADME, organism-based
ENDPOINT_NAME: fraction unbound at 24 h
Respond numerically, and do not add a unit to the figure.

Query :: Bench note: what fraction unbound at 24 h did `CNC(=O)c1ncn2cc(-c3c(F)ccc(NS(=O)(=O)c4cc(Cl)cnc4OC)c3F)ncc12` show?
Result :: 0.002

###

Experiment: Unbound fraction in Sprague-Dawley rat plasma at 1 mg/kg, iv measured upto 24 hrs
Assay type: ADME, organism-based
ENDPOINT_NAME: fraction unbound at 24 h

Here is how some molecules turned out for fraction unbound at 24 h.
COc1ncc(Cl)cc1S(=O)(=O)Nc1ccc(F)c(-c2ccc3c(-c4ncc[nH]4)ncn3c2)c1F; 0.001
CNC(=O)c1n[nH]c2c(F)c(-c3c(F)ccc(NS(=O)(=O)c4cc(Cl)cnc4OC)c3F)ccc12; 0.002
CNC(=O)c1ncn2cc(-c3c(F)ccc(NS(=O)(=O)c4cc(Cl)cnc4OC)c3F)ncc12; 0.001
CNC(=O)c1ncn2cc(-c3c(F)ccc(NS(=O)(=O)c4cc(Cl)cnc4OC)c3F)ccc12; 0.001

(A) COc1ncc(Cl)cc1S(=O)(=O)Nc1ccc(F)c(-c2ccc3c(-c4ncc[nH]4)n[nH]c3c2F)c1F
(B) CNC(=O)c1ncn2c1CC[C@H](c1c(F)ccc(NS(=O)(=O)c3cc(F)cnc3OC)c1F)C2
Query :: Select one. Lower fraction unbound at 24 h: A or B Give the label of your selection.
Result :: A

###

Assay: Oral bioavailability in Sprague-Dawley rat at 3 mg/kg measured upto 24 hrs
Type: ADME, organism-based
Details: Sprague-Dawley, in vivo
ENDPOINT_NAME: bioavailability (%)
# number only, unit % dropped from output

Query :: Bench note: what bioavailability did `CNC(=O)c1ncn2cc(-c3c(F)ccc([N-]S(=O)(=O)c4cc(Cl)cnc4OC)c3F)ncc12.[K+]` show?
Result :: 88

###

Target: Eukaryotic translation initiation factor 2-alpha kinase 3 (Homo sapiens, UniProt Q9NZJ5)
Sequence (Q9NZJ5 whole entry): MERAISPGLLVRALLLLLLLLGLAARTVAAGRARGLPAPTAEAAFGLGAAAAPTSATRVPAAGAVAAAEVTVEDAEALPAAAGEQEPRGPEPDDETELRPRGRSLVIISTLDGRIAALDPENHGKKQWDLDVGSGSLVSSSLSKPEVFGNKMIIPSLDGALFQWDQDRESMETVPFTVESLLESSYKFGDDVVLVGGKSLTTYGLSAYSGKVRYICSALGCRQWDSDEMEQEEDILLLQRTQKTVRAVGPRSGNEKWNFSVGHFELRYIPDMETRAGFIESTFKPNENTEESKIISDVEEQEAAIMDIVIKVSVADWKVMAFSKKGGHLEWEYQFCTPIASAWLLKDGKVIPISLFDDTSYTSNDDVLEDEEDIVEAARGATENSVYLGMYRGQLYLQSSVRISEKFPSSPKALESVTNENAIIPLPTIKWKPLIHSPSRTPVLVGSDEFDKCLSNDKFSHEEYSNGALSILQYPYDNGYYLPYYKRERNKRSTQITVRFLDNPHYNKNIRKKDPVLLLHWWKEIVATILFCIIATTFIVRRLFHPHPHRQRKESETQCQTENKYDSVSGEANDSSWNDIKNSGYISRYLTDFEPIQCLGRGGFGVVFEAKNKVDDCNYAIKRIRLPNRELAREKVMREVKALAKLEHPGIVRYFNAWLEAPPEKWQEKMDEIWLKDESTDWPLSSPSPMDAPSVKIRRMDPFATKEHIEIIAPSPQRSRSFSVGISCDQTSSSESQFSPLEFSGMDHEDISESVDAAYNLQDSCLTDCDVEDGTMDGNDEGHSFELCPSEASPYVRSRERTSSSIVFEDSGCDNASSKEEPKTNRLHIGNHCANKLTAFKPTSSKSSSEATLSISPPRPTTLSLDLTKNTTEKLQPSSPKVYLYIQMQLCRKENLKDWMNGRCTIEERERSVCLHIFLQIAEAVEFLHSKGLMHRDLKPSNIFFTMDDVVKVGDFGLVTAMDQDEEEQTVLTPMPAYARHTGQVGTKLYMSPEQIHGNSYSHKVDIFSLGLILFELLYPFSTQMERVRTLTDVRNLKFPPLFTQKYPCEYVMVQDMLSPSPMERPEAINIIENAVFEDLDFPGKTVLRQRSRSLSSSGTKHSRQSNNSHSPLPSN
Test: Inhibition of PEK in human MOLM16 cells
ENDPOINT_NAME: pIC50
Give only the number. pIC50 is defined as minus log10 of concentration in molar units.

Query :: Bench note: what pIC50 did `CNC(=O)c1ncn2cc(-c3c(F)ccc(NS(=O)(=O)c4cc(Cl)cnc4OC)c3F)ncc12` show?
Result :: 5.28

###

Target: Mitogen-activated protein kinase kinase kinase 20 (Homo sapiens)
Sequence (Q9NYL2 whole entry): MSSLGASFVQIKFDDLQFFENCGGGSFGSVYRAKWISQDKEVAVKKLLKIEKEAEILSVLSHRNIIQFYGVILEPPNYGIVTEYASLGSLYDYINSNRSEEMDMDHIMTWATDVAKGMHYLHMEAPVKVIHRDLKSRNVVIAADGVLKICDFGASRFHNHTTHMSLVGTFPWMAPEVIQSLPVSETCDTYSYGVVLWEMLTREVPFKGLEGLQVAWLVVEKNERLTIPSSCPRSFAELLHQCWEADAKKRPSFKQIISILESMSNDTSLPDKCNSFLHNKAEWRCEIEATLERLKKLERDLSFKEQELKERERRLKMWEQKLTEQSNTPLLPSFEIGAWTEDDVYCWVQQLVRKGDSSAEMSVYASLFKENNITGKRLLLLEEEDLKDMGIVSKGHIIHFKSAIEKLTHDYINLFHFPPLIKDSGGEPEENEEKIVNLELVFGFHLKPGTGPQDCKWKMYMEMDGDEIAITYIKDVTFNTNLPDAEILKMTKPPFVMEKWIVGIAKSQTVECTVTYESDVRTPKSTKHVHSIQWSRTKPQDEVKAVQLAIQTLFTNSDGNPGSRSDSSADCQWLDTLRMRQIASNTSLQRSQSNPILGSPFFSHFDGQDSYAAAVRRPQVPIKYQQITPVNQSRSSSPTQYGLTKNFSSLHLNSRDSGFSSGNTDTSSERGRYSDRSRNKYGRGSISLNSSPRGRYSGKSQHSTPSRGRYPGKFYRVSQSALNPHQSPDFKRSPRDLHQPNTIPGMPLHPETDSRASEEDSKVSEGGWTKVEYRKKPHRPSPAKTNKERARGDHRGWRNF
Assay: Inhibition of ZAK in human MOLM16 cells
ENDPOINT_NAME: IC50 (nM)
# number only, unit nM dropped from output

Query :: Bench note: what IC50 did `CNC(=O)c1ncn2cc(-c3c(F)ccc(NS(=O)(=O)c4cc(Cl)cnc4OC)c3F)ncc12` show?
Result :: 47
